Data provenance: patent US10450356B2

target: 20S proteasomes purified from a B-LCL cell line (immunoproteasomes) (Homo sapiens, UniProt P28062+P28065+P40306); construct: 20S proteasomes were purified from a B-LCL cell line; endogenous in cells; purified after Groettrup et al. 1995; assay: In vitro proteasome mediated cleavage analysis; assay type: biochemical; parameters: key: intact epitope found in digestion fragments: (+), present; (-), not present; details: after 1 h digestion
Where no end group is shown, it is not given here.
Recorded metric: Intact Fragment: intact epitope found in digestion fragments

For orientation, consider the following solved cases.
> print(dat)
   primary.sequence  meas.value
1         GQHLHLETF           +
2        LQHLIGLSNL           +
3          MINLRRLL           +
4        RELFPPLFMA           +
5         RELFPPLFM           +

Would you mind listing Intact Fragment: intact epitope found in digestion fragments for each of the following sequences?
1. YEDIHGTLHL
2. RPRRWKLQVL

["-", "+"]

Would you mind listing Intact Fragment: intact epitope found in digestion fragments for each of the following sequences?
1. GLSNITHVLY
2. LPRELFPPL
3. LPTLAKFSPY
4. GACDELFSY
5. LETFKAVL

-
-
-
-
+

Would you mind listing Intact Fragment: intact epitope found in digestion fragments for each of the following sequences?
1. LLRHVMNPL
2. INLRRLLL

["-", "+"]

* * *

target: 20S proteasomes purified from a B-LCL cell line (immunoproteasomes) (Homo sapiens, UniProt P28062+P28065+P40306); construct: 20S proteasomes were purified from a B-LCL cell line; endogenous in cells; purified after Groettrup et al. 1995; experiment: In vitro proteasome mediated cleavage analysis; assay type: biochemical; set-up: key: intact epitope found in digestion fragments: (+), present; (-), not present; conditions: after 1 h digestion
Recorded metric: Intact Fragment: intact epitope found in digestion fragments

For orientation, consider the following solved cases.
Smiles string	Meas value
CC(C)C[C@H](NC(=O)CNC(=O)[C@H](CC(=O)O)NC(=O)[C@H](CC(C)C)NC(=O)[C@@H](NC(=O)[C@H](C)NC(=O)[C@H](CCCCN)NC(=O)[C@H](Cc1ccccc1)NC(=O)[C@@H](N)[C@@H](C)O)C(C)C)C(=O)O	-
CC(C)C[C@H](NC(=O)[C@@H](N)CO)C(=O)N[C@@H](Cc1ccc(O)cc1)C(=O)N[C@@H](CO)C(=O)N[C@@H](Cc1ccccc1)C(=O)N1CCC[C@H]1C(=O)N[C@@H](CCC(=O)O)C(=O)N1CCC[C@H]1C(=O)N[C@@H](CCC(=O)O)C(=O)N[C@@H](C)C(=O)O	+
CC(C)C[C@H](NC(=O)[C@@H](N)C(C)C)C(=O)N[C@@H](Cc1ccc(O)cc1)C(=O)N1CCC[C@H]1C(=O)N[C@H](C(=O)N1CCC[C@H]1C(=O)N[C@@H](CC(C)C)C(=O)N[C@@H](CCC(=O)O)C(=O)N[C@@H](CO)C(=O)N[C@@H](Cc1ccc(O)cc1)C(=O)O)C(C)C	+
CC(C)C[C@H](NC(=O)[C@H](CCC(N)=O)NC(=O)[C@H](CC(=O)O)NC(=O)[C@H](CC(C)C)NC(=O)[C@H](CCCNC(=N)N)NC(=O)CNC(=O)[C@H](CCCNC(=N)N)NC(=O)[C@H](CC(C)C)NC(=O)[C@H](Cc1ccccc1)NC(=O)[C@@H](N)Cc1ccccc1)C(=O)O	-
CSCC[C@H](N)C(=O)N[C@@H](CC(C)C)C(=O)N[C@H](C(=O)N[C@@H](CC(=O)O)C(=O)N[C@H](C(=O)N[C@@H](CO)C(=O)N1CCC[C@H]1C(=O)N[C@@H](CCC(=O)O)C(=O)N1CCC[C@H]1C(=O)N[C@@H](CC(C)C)C(=O)O)C(C)C)[C@@H](C)O	-

Would you mind listing Intact Fragment: intact epitope found in digestion fragments for each of the following molecules?
1. CC(C)C[C@H](NC(=O)[C@H](CO)NC(=O)[C@H](CCC(N)=O)NC(=O)CNC(=O)[C@H](C)NC(=O)[C@H](CC(C)C)NC(=O)[C@H](CCC(=O)O)NC(=O)[C@@H](NC(=O)[C@H](CC(C)C)NC(=O)[C@@H](N)CCCNC(=N)N)C(C)C)C(=O)O
2. CC[C@H](C)[C@H](NC(=O)[C@H](C)NC(=O)[C@H](CC(C)C)NC(=O)[C@H](C)N)C(=O)N[C@@H](C)C(=O)N[C@@H](C)C(=O)N[C@@H](CC(C)C)C(=O)N[C@@H](CCC(=O)O)C(=O)N[C@@H](CC(C)C)C(=O)N[C@@H](CC(C)C)C(=O)O
3. CC[C@H](C)[C@H](NC(=O)[C@H](CCSC)NC(=O)[C@@H](N)CCC(N)=O)C(=O)N[C@@H](CC(N)=O)C(=O)N[C@@H](CC(C)C)C(=O)N[C@@H](CCCNC(=N)N)C(=O)N[C@@H](CCCNC(=N)N)C(=O)N[C@@H](CC(C)C)C(=O)N[C@@H](CC(C)C)C(=O)N[C@@H](CC(C)C)C(=O)O

1: -; 2: -; 3: +
